# Tested on: MS2 coat protein
# experiment notes: apparent KD of MS2 coat protein; higher = weaker reporter binding
# assay setup: Eterna round: R107; input ligand: theophylline 2 mM
measure name: apparent KD of MS2 coat protein (µM)

INSERT INTO measurements (query_sequence, recorded_measurement) VALUES
  ('GUCCUAGCGAGCGCUCGCUAGGACGCGGAUACCAGCGAGGUCCAUCGCCCUUGGCAGCCGAACAUGAGGAUCACCCAUGUCGGUA [#1 Same State - Theophylline A Attempt #16 (HarryS)]', 0.0134),
  ('GCUAGUGGCAGAAGGAGCGACAUUAAAAGUGGUCGAUACAUGAGGAUCACCCAUGUACUAUGUCAGGUAGGUCGCUGCCACUAGC [EAB NP+V+V2 #4 +-Same Structure]', 0.0366),
  ('ACAUGAGGAUCACCCAUGUACAUGACGGAAGGAGCGUGCAAAAGCACAGGUAGGUCGCCGAUCUACAUAUUGGGUAUUAUAUUUU [#29 Exclusion - Arginine A]', 0.0283),
  ('UAAUCUGGUCUUCGAUAGGUGAUCCUCAAACGAGGACCGGUACGGCCGCCACUCGAUAACAUGAGGAUCACCCAUGUACGAGUGA [|T''-M''-Trp-Ms2|_Design16b]', 0.205),
  ('AGAGCAUUGACGGCCGCCACUUAUGUCACAUGAGGAUCACCCAUGUGAUGGGUGAUAGCCCGGUUGAGGACCGGGUCAAUGCUCA [Omei Tryp SS B v6]', 0.0152),
  ('CCGUAGCUAGGAAGGAGCGCAUACUUCACAUGAGGAUCACCCAUGUCGAGACGUGAGUCAGUGCAGGUAGGUCGCCUAGCUAUGG [Same State - Arginine B (Freestyle 28)]', 0.0305),
  ('AUGGCGUUGGUGAGGCGGUUUAAUGGCGAUACCAGCGUGGAAACACGCCCUUGGCAGCGCCAAAACAUGAGGAUCACCCAUGUUA [Budejovice]', 0.132),
  ('AUAUAUACAUGAGGAUCACCCAUGUUAUUUCGAGGACCGGUACGGCCGCCACUCGAUAGAGUAGAAGUAAAUUUUGAUUCAUGUA [JR_SSTryptoA_Sub009]', 0.0235),
  ('ACGUAAUGCAGAAGGAGCGUCGACCUCUUACAUGAGGAUCACCCAUGUUGCAUGGUUGUACGACAGGUAGGUCGCUGAAGUACGA [#05 Exclusion - Arginine B]', 0.0681),
  ('AUACAUGAGGAUCACCCAUGUAUAGUUGAAGGAGCGACCAGAGGGUCAGGUAGGUCGCAACACAUGAGGAUCACCCAUGUAUCGA [DOUBLE!!! :-D #7]', 0.0475),
  ('CUUGAUAACUGAAGGAGCGAGAAACCCUACAUGAGGAUCACCCAUGUAUACACGGGAACUUCUCAGGUAGGUCGCAGUAUGUCAA [Teveor]', 0.165);

----------
# System: K4 kissing-loop RNA reporter
# experiment notes: apparent KD of K4 kissing-loop reporter; higher = weaker reporter binding
# assay setup: Eterna round: R107; input ligand: tryptophan 2.4 mM
Short version: apparent KD of K4 kissing-loop reporter at least 300 nM is yes (1), less is no (0).

INSERT INTO results (query_sequence, group) VALUES
  ('CAACCGUAACACGAUACCAGCCUAGAAGCCAGUGAUGUUGGCCUUUUUUCGGAAAUGAAAGGCCCUUGGCAGCGUGGAUGAACUG [Dibibiquus]', 'yes (1)'),
  ('ACAGGAUCGAAAGAUCCUGAGCAGUCAAAACGAGGACCGGUACGGCCGCCACUCGAAUAAGAGAGUGAUGUUCUCGACUGCAAAA [Omei inspired 10 - Reversed #K4Late]', 'no (0)'),
  ('GGUAGCGCUAGAGAUACCAGUCAUAUCGCUCUGGAGUGAUGUUCCGGAACGUGCGGAGAAGACCCUUGGCAGCUCAUGACGGUGU [Exclusion Theophylline B GF 4]', 'no (0)'),
  ('UUUGUAUCGGGAAGGAGCGUGAAUGAUAAUGAAUAUAGUGAUGUUAUAUAUAAGAACGAAUCACAGGUAGGUCGCCCGGAUGAGU [SSArgB.N]', 'yes (1)'),
  ('CCAUCGCUAUUCGAUACCAGCUACUUAGUGAUGUUAAGUUUUUAUCCACUGUAGGUGGAAAGCCCUUGGCAGCGAAUAGUGAUGG [Theophylline B K4 26]', 'yes (1)'),
  ('UGGGUGUAGUGAUGUUAUAUAGAGAGUGAUACCAGUUUAGAGAAGAACCCUUGGCAGCAUAGAAGAGUAUCAUUGGAGGAGGAGG [ExTheophyl.Av]', 'no (0)');

----------
Measured apparent KD of K4 kissing-loop reporter by item
# Tested on: K4 kissing-loop RNA reporter;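 also: bound reporter read as fluorescence of individual clusters on recovered sequencing chips by microscopy, with normalized cluster intensities fitted with a binding model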
# experiment notes: apparent KD of K4 kissing-loop reporter; higher = weaker reporter binding
# assay setup: Eterna round: R107; input ligand: arginine 13.2 mM
measure name: apparent KD of K4 kissing-loop reporter (nM)

INSERT INTO assay_data (query_sequence, recorded_measurement) VALUES
  ('CAGAACAUAUAUAGAAACUAUAUAUGAGAUACCAGUCAAAUUAAAGACCCUUGGCAGCUCAGGCGAGUGAUGUUCGCAGGCUAAC [Astros-Gfrank-modulation#2]', 109),
  ('UUCAGUGAUGUUGAACACUGUUGUAUAAACUAGGAUAUGCUGAUAAGCAGAAGGAGUGAUGUUCCGUUCAACAUCAGAAUUAAAU [#08 K4 FMN A Exclusion]', 415),
  ('AGUUCUUGCCGAAGGAGCGAGGCAGAGUGAUGUUCUGCAAGAGGUCGAAAGACCUCUCUGCCUCAGGUAGGUCGCGGCAUGAACA [Omei KL Arginine B Exc A v3]', 239);

----------
# Test system: MS2 coat protein
# experiment notes: apparent KD of MS2 coat protein, switch ON state; designed switch direction (-1 OFF switch, 1 ON switch): 1; higher = weaker reporter binding
# assay setup: FMN input: 0 or 200 uM; Eterna round: R93 (includes R88 designs)
Measured apparent KD of MS2 coat protein by item
measure name: apparent KD of MS2 coat protein (nM)

INSERT INTO results (query_sequence, measure_name, u, recorded_measurement) VALUES
  ('UAAAAACAUGAGGAUCACCCAUGUAAGAUAAACACAGGAUAUGCGAAAAGAAAGAAAGAAGCAGAAGGGUGAAAAU [Mat - Same State 1 - Tesla mod - 43]', 'apparent KD of MS2 coat protein', 'nM', 15.9),
  ('AAAAAACAAAGAGAGGAUAUCCUAAAAAAAACAUGAGGAUCACCCAUGUAAAGAAAUUUAAAAUGGGAGAAGGCUCUUUGAAAAA [Same State 2.6d ( Helter Skelter 1)]', 'apparent KD of MS2 coat protein', 'nM', 12.4),
  ('AAGAAAGAAACAUAGGAUAUCAAGAAUAUAACAUGAGGAUCACCCAUGUAAAUACGAAAGUAUAAUGAGAAGGAUGGAUGAUCUUC [Mat - Mod of Meechl]', 'apparent KD of MS2 coat protein', 'nM', 24.3);

----------
# System: MS2 coat protein
# experiment notes: apparent KD of MS2 coat protein; designed switch direction (-1 OFF switch, 1 ON switch): -1; higher = weaker reporter binding
# assay setup: input ligand: microRNA oligo, concentration not stated
Measured apparent KD of MS2 coat protein by item
measure name: apparent KD of MS2 coat protein

INSERT INTO measurements (query_sequence, measure_name, recorded_measurement) VALUES
  ('GCAGCGUAUGUAGGAUAUCGGUCAGUUUCUGAUCGAGAAGGACAUGAGGAUCACCCAUGUGCGGUCAUGCGUGAGCAUGGCUGC [JL ENG1 3.74] (Eterna round: R96, puzzle: Exclusion NG 1)', 'apparent KD of MS2 coat protein', '31.3 nM'),
  ('CUGGCUUAGAGAGGAUAUGACAUUCAAGCCUACCCUGGCCACGGGCCACAUGAGGAUCACCCAUGUCAGAAGGCUCAGGCCAGA [Enorri] (Eterna round: R96, puzzle: Exclusion NG 2)', 'apparent KD of MS2 coat protein', '25.5 nM'),
  ('ACAAGACAUGAGGAUCACCCAUGUGGUCGGAUGUCAAAGACCGAGGAUAUCAGCGACUGCGCCGCUGAGAAGGCGGAUGGUGCU [Telaed] (Eterna round: R96, puzzle: Exclusion NG 3)', 'apparent KD of MS2 coat protein', '476 nM');

----------
Measured apparent KD of MS2 coat protein by item
# Test system: MS2 coat protein
# experiment notes: apparent KD of MS2 coat protein; designed switch direction (-1 OFF switch, 1 ON switch): -1; higher = weaker reporter binding
# assay setup: input ligand: none
measure name: apparent KD of MS2 coat protein

INSERT INTO measurements (query_sequence, recorded_measurement) VALUES
  ('CAUGAAGACAAGGAUAUCCGAAUGACGUAAGAAGGAGAAGGUGUCACAUGAGGAUCACCCAUGUGGGAUCUCUG [EX6 B.15] (Eterna round: R97, puzzle: Exclusion 6)', '23.9 nM'),
  ('CAAUGACAUGAGGAUCACCCAUGUGAGGAUAUGGAGCGCGACCGCGCGGUCGCGUACACCAGAAGGCGCAGGAA [1st #69] (Eterna round: R97, puzzle: Exclusion 1)', '29.4 nM'),
  ('CUGCUCCGUGUAGGAUAUCGCCGCACCACCCGGCGAGAAGGACAUGAGGAUCACCCAUGUAUGUUAUUAUCACGUGUGGCGCGA [Design 41] (Eterna round: R96, puzzle: Exclusion NG 1)', '17.1 nM'),
  ('GCAGUUCGAGUUAGGAUAUGAUGUUAAUUCGGAUAUCAGAAGGAACUUGAGGAUCACCCAAGUAUAGAUGUUGU [JR_BMEx4_Sub061] (Eterna round: R97, puzzle: Brourd''s mod of Exclusion 4)', '19.8 nM'),
  ('AAAUUGCUAGAGGAUAUCGGAUAGAAUUUAUUACGAGAAGGUUAGACAUGAGGAUCACCCAUGUUCUGUUGGGA [EX6 #23] (Eterna round: R97, puzzle: Exclusion 6)', '29.1 nM'),
  ('ACAUUCAGAGGAUAUGCGCAUAGAUAAGACUUUGUUUCUUAACAUGAGGAUCACCCAUGUAGAAGGCUGUACCC [Ex2 #66] (Eterna round: R97, puzzle: Exclusion 2)', '20.9 nM'),
  ('CUGUGCACGCUGCGGUCCUACAUGAGGAUCACCCAUGUGGUCUGGUGGCGUGGGUCACCGGACUUGGCUCGUCUUGU [salish99_S_TOV1_R5_064] (Eterna round: R97, puzzle: Sensor, turn-off variant 1)', '42.3 nM'),
  ('CCUAUGUUAGGAUAUCGGCAUCCCGGGCAGGUAGCCAGGACCGAGAAGGGACAUGAGGAUCACCCAUGUCAAAU [Eternabot (Original) Solution 4] (Eterna round: R97, puzzle: Exclusion 4)', '19.1 nM'),
  ('AUAAUGUCAGGAUAUCGAACUUACUACCUCGGUAGUAAGUUCGAGAAGGGACAUGAGGAUCACCCAUGUGAUCA [E4/1-A5] (Eterna round: R97, puzzle: Exclusion 4)', '195 nM'),
  ('AAUAAUCAUGUAGGAUAUGCGUGGCAAAGCUAUGCAGAAGGACAUGAGGAUCACCCAUGUUCUAGCGUCUGCGUACAGAUGCUA [Mat - Exclusion NG 1 - Mod of JL - D80] (Eterna round: R96, puzzle: Exclusion NG 1)', '37.2 nM'),
  ('AUAAUGUGAGGAUAUCACGGCCCGGAGAAUCCGGUAAACGAUGAGAAGGCACAUGAGGAUCACCCAUGUUCCUG [EX4 A.4] (Eterna round: R97, puzzle: Exclusion 4)', '18.3 nM'),
  ('CCCGGGCUUGUGAGGAUAUUGUGUGUGAAAGCGCGCGAGAAGGCACAUGAGGAUCACCCAUGUAAGGGCCCGGG [-34.6, -32.6 kcal, A 23%, 6bis-0] (Eterna round: R97, puzzle: Brourd''s mod of Exclusion 4)', '85.9 nM'),
  ('CUGGGCGGAGGAUAUACAGGUUUAAUAUAAAUUAAAUUGGGACAUGAGGAUCACCCAUGUAGAAGGUUGUUUAG [-13.6, -11.8 kcal, 32% A] (Eterna round: R97, puzzle: Exclusion 2)', '22.1 nM'),
  ('AUGCCGCUAGGAUAUUGCAGCUGAUACAUGAGGAUCACCCAUGUGACUCGCUGGGUAGUGUAAGAAGGAGUGUGCU [Eternabot (L2) Solution 27] (Eterna round: R97, puzzle: Exclusion 5)', '24 nM'),
  ('ACAUUCAGAGGAUAUGCGCAUAGAUAAGACUUUUUUUUUUAACAUGAGGAUCACCCAUGUAGAAGGCUGUAACC [Ex2 #48] (Eterna round: R97, puzzle: Exclusion 2)', '24.3 nM'),
  ('GUUGUUUAUGUAGGAUAUGCCUGGCGUGCCUAUGCAGAAGGACAUGAGGAUCACCCAUGUAUUGCGGUCUGCGUUCAGAUCGCU [salish99_ExNG1_r4_020] (Eterna round: R96, puzzle: Exclusion NG 1)', '22 nM'),
  ('CUGCUGGAGCUUUGCUUUGGUCGUACAUGAGGAUCACCCAUGUAGGAUAUGGUAAGAUUUGCUUGCUAGAAGGAUAGAGUGGUC [salish99_ExNG3_r04_611] (Eterna round: R96, puzzle: Exclusion NG 3)', '49.7 nM'),
  ('UUUUGGCAGGCUAUUAUUAACAUGAGGAUCACCCAUGUGCAUCCAAAAUUACUUUUAGAUCUUGCUGGUCUUAUAUA [JR_STOV1_Sub085] (Eterna round: R97, puzzle: Sensor, turn-off variant 1)', '330 nM');
